meta.source: patent US20250026849A1

target: T1, HER2 (human, UniProt P04626 23-652); test: ELISA, format not described; design: unit not given here
T1 construct: The ELISA is not described; also called ERBB2; CD340
# if value of ELISA_avg reaches 5, tag Criterion met; if it stays below, tag Criterion not met

Given the entry HER2-binding D domain SEQ ID NO: 816 (designed binder) MGSWWEFHIRLHAINYRLAALGGSEAELAAFEKEIAAFESELQAYKGKGNPEVEALRELAAKIRGDLQAYRHN , answer whether its ELISA_avg meets or surpasses 5.
Criterion met

Quick one: HER2-binding D domain SEQ ID NO: 813 (designed binder) MGSWLVFKDELAGIKNYLEALGGSEAELATFEQDIAWFEQWLQNYKGKGNPEVEALRKEAAAIRDELQAYRHN
Criterion not met

Now try HER2-binding D domain SEQ ID NO: 828 (designed binder) MGSWWEFHVRLRAIEYRLEALGGSEAELAAFEKEIAAFESELQAYKGKGNPEVEQLRLIAANIRHLLQAYRHN .
Criterion met

Then HER2-binding D domain SEQ ID NO: 821 (designed binder) MGSWFEFKIRLYAIQYRLSALGGSEAELAAFEKEIAAFESELQAYKGKGNPEVEELRNLAAEIRHSLQAYRHN ?
Criterion met

Okay, and HER2-binding D domain SEQ ID NO: 824 (designed binder) MGSWIEFWVRLNAILYRLYALGGSEAELAAFEKEIAAFESELQAYKGKGNPEVEALRDSAAEIRRWLQAYRHN ?
Criterion not met
